Attribution: PubChem BioAssay (NCATS)

# Test system: HaCat
# Assay: Cytotoxic Profiling of Annotated Libraries Using Quantitative High-Throughput Screening (AID 1296008); also: % is scaled to controls: 0 for no effect and ±100 for the full control effect; nearly all actives have a fitted effect of over 60% in size
# Experimental setup: Five cell lines viability, CellTiter-Glo ATP luminescence, 48-72 h; stronger effect = lower value
Records with an inconclusive call do not appear.
Endpoint name: max response (%)
Answer with a number only, understood to be in %.

Reference set (4 entries):
INSERT INTO assay_data (smiles_repr, endpoint_name, numeric_result) VALUES
  ('CC(C)(C)c1ccc(CNC(=S)NCc2ccc(NS(C)(=O)=O)c(F)c2)cc1', 'max response', -44.1),
  ('N#Cc1c[nH]c2c(C(=O)N3CCN(CCc4ccc(F)cc4)CC3)cccc12', 'max response', -7.89),
  ('Cc1ccc(CCCO)c(NCc2ccc3nc(NCCCN4CCOCC4)n(Cc4nc(C)ccc4O)c3c2)c1', 'max response', -12.2),
  ('CNc1ccc([N+](=O)[O-])cc1-n1cnc(-c2ccc(C(F)(F)F)cc2)c1', 'max response', -13.4);

Now let's try a different one.
Q) Field request: max response | item: `Cc1cc2nc(NCCCO)n(CC(=O)c3cc(C(C)(C)C)c(O)c(C(C)(C)C)c3)c2cc1C`
A) -19.8

---

# Assay: MCF7 Cancer Cell Toxicity qHTS against the NCATS CANVASS Library (AID 1347369)
# Experimental setup: MCF7 viability, ATP luminescence (CellTiter-Glo), 72 h; series mostly up to 46 µM
Records with an inconclusive call do not appear. Calls of active or inactive are those of the source. The call rests on the fitted dose curve; in most records, active means well fitted cell-killing curve with a large enough effect; inconclusive means small, poorly fitted or top-dose-only effect; inactive means no such curve, though single readings can be large or run the other way.
Give your call using only these classes: active, inactive

INSERT INTO assay_data (molecule, classification) VALUES
  ('C[C@H]1C[C@@H]([C@@H]2CC[C@]34O[C@H](CC[C@@]35C[C@H](C)C(=O)O5)CN24)OC1=O', 'inactive'),
  ('CS/C=C/C(N)=O', 'inactive'),
  ('O=C1C[C@@H](c2ccc(O)c(-c3c(O)cc(O)c4c3O[C@H](c3ccc(O)cc3)CC4=O)c2)Oc2cc(O)cc(O)c21', 'inactive');

# next molecule below
Q) Per the records of this test, what outcome belongs to `COc1ccc(/C=C2\COc3cc(O)ccc3C2=O)cc1` ?
A) inactive

---

# Tested on: ATS95
# Assay: qHTS profiling for inhibitors of Plasmodium falciparum proliferation (AID 504749); also: nearly all actives have a fitted effect of over 60% in size
# Experimental setup: P. falciparum in erythrocytes, SYBR Green DNA, 72 h; series mostly up to 28.7 µM
Records with an inconclusive call do not appear. Active and inactive are the calls of the source. Calls follow the shape of the dose curve; as a rule, active = well fitted inhibition curve with a large enough effect; inconclusive = small, poorly fitted or top-dose-only effect; inactive = flat fitted curve, though single readings scatter.
A correct response names exactly one class from true (1) = active, false (0) = inactive

INSERT INTO measurements (compound, classification) VALUES
  ('CC(=O)[C@H]1CC[C@H]2C3CC=C4C[C@@H](O)CC[C@]4(C)C3CC[C@]12C (stereo not given in full)', 'false (0)'),
  ('COC(=O)[C@@H]1[C@@H]2C[C@H]3c4[nH]c5ccccc5c4CCN3C[C@@H]2CC[C@@H]1O', 'false (0)'),
  ('CC(C)C[C@@H](NC(=O)[C@H](Cc1ccccc1)NC(=O)c1cnccn1)B(O)O', 'true (1)'),
  ('C[C@@H](C(=O)O)c1ccc(-c2ccccc2)c(F)c1', 'false (0)');

Q) What did this assay record as the result for CCCCC(=O)N(Cc1ccc(-c2ccccc2-c2nn[nH]n2)cc1)C(C(=O)O)C(C)C (stereo not given) ?
A) false (0)

---

# Assay: U-118MG Cancer Cell Toxicity qHTS against the NCATS CANVASS Library (AID 1347351)
# Experimental setup: U-118MG viability, CellTiter-Glo luminescence, 72 h; series mostly up to 38.3 µM
Results filed as inconclusive are left out. Calls of active or inactive are those of the source. The call rests on the fitted dose curve; in most records, active means well fitted cell-killing curve with a large enough effect; inconclusive means small, poorly fitted or top-dose-only effect; inactive means flat fitted curve, though single readings scatter. Numbered stars: 1 amine (or outer) side, 2 acyl side, 3 side chain; on linkers, the order of the positions; unused ones are H or OH. Bridge positions count the residues as written; N and C are the ends. Square brackets hold non-standard residues; d marks the D form. Peptide text beside a SMILES is read from it. ξ: configuration not given here. Phe(3R-OH) = O=C([C@@H](N[*:1])[C@H](O[*:3])c1ccccc1)[*:2]; NMeTrp(4-OMe) = CN[C@@H](Cc1c[nH]c2cccc(OC)c12)C(=O)O; ξThr(3R)(O-yl) = C[C@@H](O[*:3])C(N[*:1])C(=O)[*:2]; NMeThr(3ξ) = CN[C@H](C(=O)O)C(C)O; NMeL = CN[C@@H](CC(C)C)C(=O)O; NMeV = CN[C@H](C(=O)O)C(C)C; ξIle = CC[C@H](C)C(N)C(=O)O; ξV = CC(C)C(N)C(=O)O
Give one outcome, nothing more. List: active, inactive

INSERT INTO results (molecule, classification) VALUES
  ('CC[C@H](C)C(NC(=O)[C@@H](NC)C(C)C)C(=O)NC1C(=O)N(C)[C@@H](C(C)O)C(=O)N[C@@H](C(C)C)C(=O)N(C)[C@@H](CC(C)C)C(=O)NC(C(C)C)C(=O)N(C)[C@@H](C(C)C)C(=O)N(C)[C@@H](Cc2c[nH]c3cccc(OC)c23)C(=O)N[C@@H](C(C)C)C(=O)N[C@@H]([C@H](O)c2ccccc2)C(=O)N[C@@H](C(C)C)C(=O)O[C@@H]1C (stereo partly drawn) (H-[NMeV][ξIle][ξThr(3R)(O-yl)][NMeThr(3ξ)]V[NMeL][ξV][NMeV][NMeTrp(4-OMe)]V[Phe(3R-OH)]V; ester 3-C)', 'inactive'),
  ('CC1=CC2=C[C@H](C)C[C@@]23OC(=C(C)C3=O)CC(C)(C)/C=C/C1=O', 'active'),
  ('CC(=O)O[C@@H]1C=C2C(=O)OC[C@]2(O)[C@@]2(C)CCCC(C)(C)[C@H]12', 'active');

Q) Tell me the recorded outcome of this test for COc1cc(/C=C2/C(=O)N(c3ccc(O)cc3C(=O)O)[C@H](c3ccc(O)c(OC)c3)C2C(=O)Nc2ccc(O)cc2C(=O)O)ccc1O (stereo partly specified) .
A) inactive

Q) Moving on to `O=Cc1ccc2n1C[C@@]1(C[C@H](O)[C@H](O)CO1)OC2`
A) inactive

Q) Okay, and C=C1C[C@@]23C=CC(=O)[C@@](C)(CCC(=O)Nc4c(O)ccc(C(=O)O)c4O)C2C[C@@H]1CC3 (stereo partly specified) ?
A) inactive

---

# Assay: qHTS for Inhibitors of Plasmodium falciparum (GB4) proliferation (AID 504315); also: nearly all actives have a fitted effect of over 50% in size
# Experimental setup: P. falciparum GB4 in erythrocytes, SYBR Green DNA, 72 h; series mostly up to 6.7 µM
# From the text: Plasmodium falciparum is a virulent malarial parasite that kills 1-2 million people worldwide each year. Malaria not only inflicts tremendous suffering and morbidity on the human population, but has dramatically influenced the course of civilization with profound sociological and economic implications (Shah, S. 2010). […] Because mature erythrocytes lack DNA, only Plasmodium-derived DNA is detected. […]
Results filed as inconclusive are left out. Activity calls are given as the source filed them. The call rests on the fitted dose curve; in most records, active means well fitted inhibition curve with a large enough effect; inconclusive means small, poorly fitted or top-dose-only effect, or effect the other way; inactive means flat fitted curve, though single readings scatter.
The categories you may choose from are 1 (active), 0 (inactive)

Here's what some known entries look like.
INSERT INTO assay_data (compound, classification) VALUES
  ('CC(C)=CCCC(C)=CCN1C(=O)[C@]2(O[C@H](COc3ccccc3)CC3=CCCC32)c2c(Br)cccc21 (some centres undefined)', 1),
  ('COc1ccc(C(=O)CC(=O)c2c(O)cc(OC)cc2OC)cc1', 0),
  ('COCn1c2ccccc2c2nnc(C(=O)O)nc21', 0);

Q) Status in this test for `COc1cc(O)c(C(=O)C=Cc2ccc3c(c2)OCO3)c(OC)c1` ?
A) 0

Q) Thanks! And `C=CCOC(=O)N[C@H](c1ccccc1)C(C(C)=O)C(C)=O` ?
A) 0

Q) Do the same for `COC(=O)C1=C(C(=O)OC)[C@@H]2N(Cc3ccccc3)c3ccccc3[C@@]23C[C@@H](C(=O)OC)N(C(=O)c2cc(C)oc2C)C3=N1` please
A) 0

Q) What about this compound? `C[C@@H]1C=CCCO[C@]12C(=O)Nc1ccc(O)cc12`
A) 0

Q) And C=CC1=C2C=C(C3CC3)N(CC3CC3)C=C2C(=O)C(C)(OC(=O)c2ccco2)C1=O (centres undefined) ?
A) 0

Q) Another compound: `COC(=O)C1=C(C(=O)OC)[C@@H]2N(C)c3ccc(OC)cc3[C@@]23C[C@@H](C(=O)OC)N(C(=O)NC(C)(C)C)C3=N1`
A) 1

---

# Test system: CRL-7250
# Assay: Cytotoxic Profiling of Annotated Libraries Using Quantitative High-Throughput Screening (AID 1296008); also: % is scaled to controls: 0 for no effect and ±100 for the full control effect; nearly all actives have a fitted effect of over 60% in size
# Experimental setup: Five cell lines viability, CellTiter-Glo ATP luminescence, 48-72 h; stronger effect = lower value
Inconclusive results are not listed.
Endpoint name: max response (%)
# output: bare number, implied unit %

INSERT INTO results (compound, readout_units, numeric_result) VALUES
  ('Cn1cc(-c2cnc3ccc4ccc(CS(=O)(=O)NCc5ccccn5)cc4c(=O)c3c2)cn1', '%', -6.66),
  ('COc1cc(O)ccc1OCCNCC(O)COc1cccc2[nH]c3ccccc3c12 (stereo not drawn)', '%', -16.8),
  ('C[C@@H](c1nc(-c2ccc(C#N)cc2)cs1)[C@](O)(Cn1cncn1)c1cc(F)ccc1F', '%', -34.3),
  ('OCC(CO)(CO)NCC(O)Cn1c2ccc(Cl)cc2c2cc(Cl)ccc21 (stereo not drawn)', '%', -2.15),
  ('CC(C)N(CCCNC(=O)Nc1ccc(C(C)(C)C)cc1)C[C@H]1O[C@@H](n2cc(Br)c3c(N)ncnc32)[C@H](O)[C@@H]1O', '%', -23.7);

Q) Return max response measured with CRL-7250 given this compound: `C/C=C(/COC(=O)/C(C)=C/C)C(=O)OC/C=C/c1ccc(OC)cc1`
A) -7.59

Q) Please do the same for CC1CCC(n2c3cnccc3c3cnc(Nc4ccc5c(n4)CCN(C(=O)CO)C5)nc32)CC1 (stereo not drawn) as well.
A) -12.2

Q) Same lookup for `CC1CCN(c2cc(NC(=O)c3ccccc3)ncn2)CC1` , please.
A) -6.14

Q) Please do the same for `C=C1CC[C@@H]2[C@](C)(CO)[C@H](O)CC[C@@]2(C)[C@@H]1C/C=C1/C(=O)OC[C@@H]1O` as well.
A) -17.3
